Record form. Attribute: Maximum absorption peak of the compounds disclosed. Fill in for each entry.
measurement description: Detection of the absorption peak of the fluorescent dyes (UV-visible spectrophotometer, after standing at different temperatures)
Type: physicochemical
measurement context: after standing at 60° C. for 48 hours, methanol/ethylene glycol (50:50 vol/vol), light-proof
Give bare numbers, in nm.

Solved entries (count: 4):
smiles text	recorded result
OCCN1C=C/C(=C\C=C\c2sc3ccc(Cl)cc3[n+]2CCO)c2ccccc21	638
CCN1C=C/C(=C\C=C\c2sc3ccccc3[n+]2CCOC(C)=O)c2ccc(Cl)cc21	639
OCCN1C=C/C(=C\C=C\c2sc3ccccc3[n+]2CCO)c2ccc(Br)cc21	638
CCN1C=C/C(=C\C=C\c2sc3ccccc3[n+]2CCO)c2ccc(Cl)cc21	639

-- ask Tell me the measured Maximum absorption peak of the compounds disclosed of CC[n+]1c(/C=C/C=C2\C=CN(CCO)c3ccccc32)sc2ccc(Br)cc21 , please.
-- reply 640
